- TESTED TARGET: human μ-opioid receptors (Homo sapiens)
- Sequence (P35372 whole entry): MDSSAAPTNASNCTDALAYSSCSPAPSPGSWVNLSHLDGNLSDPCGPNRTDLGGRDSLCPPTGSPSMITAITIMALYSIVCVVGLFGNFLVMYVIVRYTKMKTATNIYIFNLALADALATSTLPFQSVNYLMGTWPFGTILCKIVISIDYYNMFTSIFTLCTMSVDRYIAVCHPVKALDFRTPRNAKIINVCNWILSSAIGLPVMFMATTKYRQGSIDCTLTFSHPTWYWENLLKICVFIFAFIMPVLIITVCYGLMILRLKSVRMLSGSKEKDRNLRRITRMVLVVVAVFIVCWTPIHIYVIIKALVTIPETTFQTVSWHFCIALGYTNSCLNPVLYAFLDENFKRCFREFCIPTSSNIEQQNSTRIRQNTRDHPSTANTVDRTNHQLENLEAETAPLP
Measured Ki, listed per entry for reference.
MEASURE: Ki (nM)

INSERT INTO measurements (molecule, reported_measurement) VALUES
  ('CC[C@@H]1CN2CC[C@@]34OCCC[C@@]3(Nc3cccc(OC)c34)[C@@H]2C[C@@H]1/C(=C\OC)C(=O)OC [MGM-29]', 4.9),
  ('CC[C@@H]1CN2CC[C@@]34OCCO[C@@]3(Nc3ccc(F)c(OC)c34)[C@@H]2C[C@@H]1/C(=C\OC)C(=O)OC [MGM-9, reference compound]', 3.5),
  ('CC[C@@H]1CN2CC[C@@]34OCC[C@@]3(Nc3cccc(OC)c34)[C@@H]2C[C@@H]1/C(=C\OC)C(=O)OC [MGM-30]', 0.12);

The origin of these recorded values is patent US9957262B2.
